Below: a set of entries, each annotated with reported AC40.
test system: V. cholerae BH1578 luxCDABE luminescence, 6 h; test: Cholera quorum light production inducers, absence of autoinducers, BH1578 strain, confirmatory dose response (AID 651816)

Consider the worked cases shown below.
| COMPOUND | RESULT |
| --- | --- |
| CCCn1nnnc1NCc1ccc(N2CCCC2)cc1 | 60.8 nM |
| O=C(Cc1ccc(-c2ccccc2)cc1)NC1CCOCC1 | 2890 nM |
| CCn1nnnc1CCc1ccc(N2CCCC2)cc1 | 1680 nM |
| CCC(C)NC(=O)Cc1ccc(-c2ccccc2)cc1 (centres undefined) | 4820 nM |
| CCCCn1nnnc1NCc1ccc(N2CCCC2)cc1 | 5660 nM |
| CCn1nnnc1NCc1ccc(N2CCCC2)cc1 | 20.9 nM |
| CCn1nnnc1NCc1cccc(N2CCCC2)c1 | 504 nM |
| CCCn1nnnc1NCc1ccc(C(C)C)cc1 | 793 nM |

Q: Query for V. cholerae BH1578 luxCDABE luminescence, 6 h: what AC40 does the record show for `CC(C)c1ccc(CNc2nnnn2C)cc1` ?
Ans: 3260 nM

Q: Query for V. cholerae BH1578 luxCDABE luminescence, 6 h: what AC40 does the record show for `CC(C)NC(=O)Cc1ccc(-c2ccccc2)cc1` ?
Ans: 6210 nM

Q: Query for V. cholerae BH1578 luxCDABE luminescence, 6 h: what AC40 does the record show for `Cn1nnnc1NCc1ccc(N2CCCC2)cc1` ?
Ans: 956 nM

Q: Query for V. cholerae BH1578 luxCDABE luminescence, 6 h: what AC40 does the record show for `CCn1nnnc1NCc1ccc(N2CCCCC2)cc1` ?
Ans: 121 nM

Q: Query for V. cholerae BH1578 luxCDABE luminescence, 6 h: what AC40 does the record show for `O=C(Cc1ccc(-c2ccccc2)cc1)NC1CCC1` ?
Ans: 510 nM

Q: Query for V. cholerae BH1578 luxCDABE luminescence, 6 h: what AC40 does the record show for `CCC(CC)NC(=O)Cc1ccc(-c2ccccc2)cc1` ?
Ans: 5370 nM
